system: COLO 205 colon; assay: NCI tumour cell line growth inhibition, 48 h
assay-endpoint: GI50

[[record]]
compound = "CCOC(=O)/C(C#N)=C\\C=C(\\Sc1nc2ccccc2s1)c1ccc(Cl)cc1"
assay_endpoint = "GI50"
meas_value = "20.1 µM"

[[record]]
compound = "Cc1ccc(CN(C)c2ccc(CO)c(Cl)c2)cc1"
assay_endpoint = "GI50"
meas_value = "3.24 µM"

[[record]]
compound = "Cc1nn2c(/C=N/N=C(N)N)c(-c3ccc(Cl)c([N+](=O)[O-])c3)nc2s1"
assay_endpoint = "GI50"
meas_value = "0.457 µM"


// lookup GI50 | system=COLO 205 colon | key= c1ccc2nc(N/N=C3\CCCCC3C3CCCCC3)ccc2c1 (stereo not drawn)
3.26 µM

Similarly, CC(C)N(C(C)C)[PH+]1O[PH+](N(C(C)C)C(C)C)O[PH+](N(C(C)C)C(C)C)O[PH+](N(C(C)C)C(C)C)O1.[C-]#[O+].[C-]#[O+].[C-]#[O+].[C-]#[O+].[C-]#[O+].[C-]#[O+].[C-]#[O+].[C-]#[O+].[Mo].[Mo] (stereo not drawn) ?
> 100 µM

Similarly, CC(C)N(CCCNC(=O)Nc1ccc(C(C)(C)C)cc1)C[C@H]1O[C@@H](n2ccc3c(N)ncnc32)[C@H](O)[C@@H]1O ?
> 100 µM

Similarly, Cc1cc(Cl)ccc1OCc1nn2c(CCCCc3nnc4sc(COc5ccc(Cl)cc5C)nn34)nnc2s1 ?
43.5 µM

Similarly, CC(C)Oc1ccc(-c2nn([C@@H](C)c3oc4ccc(F)cc4c(=O)c3-c3cccc(F)c3)c3ncnc(N)c23)cc1F ?
67.3 µM

---

We begin with a simple list: items and their reported TGI.
system: RPMI-8226 leukemia; assay: NCI tumour cell line growth inhibition, 48 h

[[record]]
entry_smiles = "CCOC(=O)[C@@H]1[C@@H]2NC(=O)N[C@@]1(C)Oc1ccccc12"
assay_endpoint = "TGI"
meas_value = "> 100 µM"

[[record]]
entry_smiles = "CN(C)c1ccc(/C=C2\\C[C@H]3[C@@H]4CC=C5C[C@@H](O)CC[C@]5(C)[C@H]4CC[C@]3(C)C2=O)cc1"
assay_endpoint = "TGI"
meas_value = "> 100 µM"


Recorded TGI of N#CC(C#N)=Cc1c[nH]c(=O)[nH]c1=O , please.
> 100 µM

---

test system: HCT-15 colon; experiment: NCI tumour cell line growth inhibition, 48 h
We begin with a simple list: items and their reported TGI.

Recorded TGI of CC1=CC2C(=O)N(c3ccccc3)C(=O)C2CC1n1[nH]c(=O)n(Cc2ccccc2)c1=O (stereo not drawn) , please.
> 100 µM

Similarly, C=C1c2nc3ccccc3n2C=C(c2ccc(C)cc2)N1c1ccccc1 ?
> 38 µM

Similarly, COc1cc(/C=C/C(=O)c2ccccc2)cc(OC)c1OC ?
5.26 µM

Similarly, C#CC[C@@H]1C[C@]2(C)[C@H]3CC[C@@H]4[C@H]5C(C(=C)C)CC[C@]5(C(=O)NCCCCN)CC[C@@]4(C)[C@]3(C)CC[C@H]2C(C)(C)[C@H]1OC(C)=O (stereo partly drawn) ?
3.45 µM

Similarly, NNC(=O)c1ccccc1Nc1nc(-c2cccs2)nc2ccc(Br)cc12 ?
> 100 µM

Similarly, O=C(c1ccccc1)c1ccc2cccc(OC3OC(CO)C(O)C(O)C3O)c2n1 (stereo not drawn) ?
> 100 µM

Similarly, CSc1nc(NC2OC(COC(C)=O)C(OC(C)=O)C(OC(C)=O)C2OC(C)=O)c(N=CC=Nc2c(NC3OC(COC(C)=O)C(OC(C)=O)C(OC(C)=O)C3OC(C)=O)nc(SC)[nH]c2=O)c(=O)[nH]1 (stereo not drawn) ?
> 100 µM

Similarly, S=C(Nc1ccccc1)c1ccc(CN2CCCCC2)s1 ?
36.2 µM

The measured values listed here are drawn from PubChem BioAssay (NCI).
